Ki values by entry
# Species on record: Cavia porcellus
# testProtocol: Functional antagonism was obtained by the ability of compound to inhibit stimulation of [35S]GTP gamma S binding produced by selective agonists U69,593 in guinea pig caudate membranes
Quick reminder: number only, in nM, skip the unit.

# annotated cases, reported Ki shown
- compound: "CC(C)[C@@H](CN1CC[C@@](C)(c2cccc(O)c2)[C@@H](C)C1)NC(=O)[C@H]1Cc2ccccc2CN1"
  unitName: "nM"
  numericResult: 11.5
- compound: "CC(C)[C@@H](CN1CC[C@@](C)(c2cccc(O)c2)[C@@H](C)C1)NC(=O)CCc1ccc(O)cc1"
  unitName: "nM"
  numericResult: 4.7
- compound: "CC(C)[C@@H](CN1CC[C@@](C)(c2cccc(O)c2)[C@@H](C)C1)NC(=O)[C@H]1Cc2ccc(O)cc2CN1"
  unitName: "nM"
  numericResult: 0.02

Next compound, Ki to be filled in.
What Ki value was documented for this compound, Oc1ccc2c3c1O[C@H]1c4[nH]c5c(c4C[C@@]4(O)[C@@H](C2)N(CC2CC2)CC[C@]314)C[C@@]1(O)[C@H]2Cc3ccc(O)c4c3[C@@]1(CCN2CC1CC1)[C@H]5O4 (relative stereo) ?
0.038

* * *

# assaySystem: Opioid receptors; delta & kappa (Homo sapiens) (UniProt P41145+P41143)
# Sequence (P41143 whole entry, looked up): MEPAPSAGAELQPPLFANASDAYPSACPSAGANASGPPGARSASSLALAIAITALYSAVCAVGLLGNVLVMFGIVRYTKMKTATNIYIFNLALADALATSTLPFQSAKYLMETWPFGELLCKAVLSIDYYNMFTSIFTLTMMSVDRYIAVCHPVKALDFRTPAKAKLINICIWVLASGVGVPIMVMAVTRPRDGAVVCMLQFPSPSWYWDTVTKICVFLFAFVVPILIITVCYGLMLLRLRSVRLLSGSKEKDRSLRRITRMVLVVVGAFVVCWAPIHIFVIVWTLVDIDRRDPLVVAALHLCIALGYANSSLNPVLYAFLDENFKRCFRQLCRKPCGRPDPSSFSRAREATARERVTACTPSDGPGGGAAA
# Sequence (P41145 whole entry, looked up): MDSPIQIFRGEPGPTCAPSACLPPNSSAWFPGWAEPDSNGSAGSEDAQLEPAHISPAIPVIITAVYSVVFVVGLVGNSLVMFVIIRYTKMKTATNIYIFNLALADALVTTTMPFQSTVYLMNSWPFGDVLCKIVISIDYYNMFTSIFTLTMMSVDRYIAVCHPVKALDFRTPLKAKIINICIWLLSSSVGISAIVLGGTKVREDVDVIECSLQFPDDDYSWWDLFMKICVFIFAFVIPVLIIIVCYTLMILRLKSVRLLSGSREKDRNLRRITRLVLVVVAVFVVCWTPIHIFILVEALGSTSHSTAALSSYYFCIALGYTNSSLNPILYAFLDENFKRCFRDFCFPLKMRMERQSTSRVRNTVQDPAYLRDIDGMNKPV
# testProtocol: Selectivity of compound for delta opioid receptor to that of kappa opioid receptor
# Format: protein assay
As shown below, each of these molecules has a reported Selectivity value.
// print number alone

- smilesRepresentation: "CC(C)[C@@H](CN1CC[C@@](C)(c2cccc(O)c2)[C@@H](C)C1)NC(=O)CCc1ccccc1"
  Selectivity: 11

Please examine the following record next.
Give Opioid receptors; delta & kappa (Homo sapiens) (UniProt P41145+P41143) Selectivity for `CC(C)[C@@H](CN1CC[C@@](C)(c2cccc(O)c2)[C@@H](C)C1)NC(=O)[C@H]1Cc2ccc(O)cc2CN1`
940

* * *

# assaySystem: Delta-type opioid receptor (Rattus norvegicus, UniProt P33533)
# Sequence (P33533 whole entry): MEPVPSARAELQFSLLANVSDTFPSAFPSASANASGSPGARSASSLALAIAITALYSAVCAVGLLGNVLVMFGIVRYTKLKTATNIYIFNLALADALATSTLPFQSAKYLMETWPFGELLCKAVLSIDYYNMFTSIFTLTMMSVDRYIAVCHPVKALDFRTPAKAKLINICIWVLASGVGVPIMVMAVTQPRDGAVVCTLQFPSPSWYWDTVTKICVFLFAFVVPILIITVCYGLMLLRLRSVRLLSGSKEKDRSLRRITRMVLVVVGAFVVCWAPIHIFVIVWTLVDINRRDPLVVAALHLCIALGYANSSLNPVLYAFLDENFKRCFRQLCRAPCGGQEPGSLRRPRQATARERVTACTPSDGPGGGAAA
# testProtocol: Binding affinity of compound for opioid receptor delta 1 was determined using [3H]DADLE as radioligand from rat brain tissue
assayEndpoint: Ki (nM)
Form entry: value (nM) — number only.

Quick check: Ki of `Oc1ccc2c3c1O[C@H]1c4[nH]c5c(c4C[C@@]4(O)[C@@H](C2)N(CC2CC2)CC[C@]314)C[C@@]1(O)[C@H]2Cc3ccc(O)c4c3[C@@]1(CCN2CC1CC1)[C@H]5O4` ?
111

* * *

# Species: Cavia porcellus
# testProtocol: Functional antagonism was obtained by the ability of compound to inhibit stimulation of [35S]GTP gamma S binding produced by selective agonists DAMGO in guinea pig caudate membranes
assayEndpoint: pKi
When answering, recall that pKi equals minus log10 of the concentration in mol/L, and write that number alone.

- compound: "CC(C)[C@@H](CN1CC[C@@](C)(c2cccc(O)c2)[C@@H](C)C1)NC(=O)CCc1ccc(O)cc1"
  numericResult: 8.14
- compound: "CC(C)[C@@H](CN1CC[C@@](C)(c2cccc(O)c2)[C@@H](C)C1)NC(=O)[C@H]1Cc2ccc(O)cc2CN1"
  numericResult: 8.67
- compound: "Oc1ccc2c3c1O[C@H]1c4[nH]c5c(c4C[C@@]4(O)[C@@H](C2)N(CC2CC2)CC[C@]314)C[C@@]1(O)[C@H]2Cc3ccc(O)c4c3[C@@]1(CCN2CC1CC1)[C@H]5O4 (relative stereo)"
  numericResult: 7.78

Okay, now this compound:
# query: pKi of entry `CC(C)[C@@H](CN1CC[C@@](C)(c2cccc(O)c2)[C@@H](C)C1)NC(=O)[C@H]1Cc2ccccc2CN1`
7.16
